Experiment: Toxicity liver stage against HepG2, at 10uM
Type: cell-based
Set-up: test concentration 10 uM, cell line HepG2-A16-CD81EGFP
Settings: human, HepG2-A16-CD81EGFP cells; read-out: INHIBITION
What cytotoxicity at 10 µM was measured for each of the following?
Answers are plain numbers, in %.

// cytotoxicity at 10 µM value for O=C(Nc1nncs1)NC1CCOc2ccccc21 (centres undefined) : -10.4

Item: CC(c1nc(C2CC2)no1)N1CCN(CCOCC(F)(F)F)CC1 (centres undefined) | cytotoxicity at 10 µM: -8.6

Reported cytotoxicity at 10 µM ( O=C(NCCCNc1ccccn1)NCC1CCS(=O)(=O)C1 (centres undefined) ) = 16

So for COC1CCCOC12CCN(C(=O)NCc1ccco1)CC2 (centres undefined) , the logged cytotoxicity at 10 µM turned out to be -15.3

Quick note, cytotoxicity at 10 µM for "O=C(CN1CC(n2cccn2)C1)NCCC1=CCCCC1" landed at -8.25

Give cytotoxicity at 10 µM for each of the items listed below.
1. COCC(c1cccc(C(F)(F)F)c1)N(C)C(=O)c1ccncc1 (centres undefined)
2. COc1ccc(SC(C)C(=O)N2CCC(NC(=O)C3CC3)CC2)cc1 (centres undefined)
3. COc1cccc(C(=O)N2CCc3c(nc(N)[nH]c3=O)C2)c1C
4. CCc1nnc(N2CCN(CCc3ccccc3)C(=O)C2)o1
5. COc1ccc(C(=O)N2C[C@@H](C(=O)O)[C@H](c3ccccc3C)C2)c(O)c1
6. CN(c1ncccc1CNC(=O)c1cscn1)C1CCCCC1

1: -14.6; 2: -9.11; 3: 1.96; 4: -1.01; 5: -4.31; 6: 1.86

Answer for every listed entry: what is its cytotoxicity at 10 µM? The entries follow.
1. Cc1c(CN2CCCC(C(=O)c3ccc(C(C)(C)C)cc3)C2)cnn1C (centres undefined)
2. COCC(=O)N1CCc2ccc(=O)n(CC3CC3)c2CC1

1: 10.4; 2: 6.7

Provide each entry's cytotoxicity at 10 µM from the list below.
1. Cn1cc(-c2nc(CN3CCCCC3Cn3cncn3)cs2)cn1 (centres undefined)
2. CCN1CCOCC2(CCCN(c3nncs3)C2)C1 (centres undefined)
3. O=C(O)c1nnn(-c2ccc(C(F)(F)F)cc2)c1-c1ccncc1

[-17.4, 8.28, 7.33]

Below is a list of molecules. For each, state its recorded cytotoxicity at 10 µM.
1. Cc1nc(CN2CCC(c3ccnn3CCO)CC2)oc1C
2. COc1ccc(CN2CC[C@H](O)[C@@H]2Cc2cnn(C)c2)cc1

-15.9
-81.7

Could you report cytotoxicity at 10 µM for every entry in the following list?
1. CNC(=O)CCS(=O)(=O)Cc1nnnn1-c1ccccc1
2. CCN1C[C@H]2CCN(C(=O)NC)CC[C@H]2S1(=O)=O
3. CCOc1cccc(CNCc2ccc(NC(=O)NC(C)C)cc2)c1
4. O=C(NCCc1[nH]nc2c1CCCC2)C1CCCN(Cc2ccco2)C1 (centres undefined)
5. CCc1c(C)sc2nc3n(CC(N)=O)nc(SC)n3c(=O)c12
6. CC(=O)N1CCCC(C(=O)NCCc2ccc(F)c(Br)c2)C1 (centres undefined)

[15.3, 4, -11.5, 2.72, -0.817, 4.64]
